Assay name: melting temperature; melt of duplexes
Conditions used: sodium 0.0675 M; strand 1 µM
Listed here are substances together with their documented Tm.
Respond numerically; units are °C and should not be typed.

CGACGTGCGATATGTGCTG+CAGCACATTTTGCACGTCG ((((((((.(.((((((((+)))))))).).))))))))    52.5
CGACGTGCAACATGTGCTG+CAGCACATTCTGCACGTCG (((((((((..((((((((+))))))))..)))))))))    50.1
CGACGTGCAACATGTGCTG+CAGCACATGTGGCACGTCG ((((((((.((((((((((+)))))))))).))))))))    59.3

Incoming: # return recorded Tm for entry CGACGTGCTCAATGTGCTG+CAGCACATGGAGCACGTCG ((((((((((.((((((((+)))))))).))))))))))
Outgoing: 59.5

Incoming: Supply measured Tm of CGACGTGCGTCATGTGCTG+CAGCACATCCTGCACGTCG ((((((((...((((((((+))))))))...)))))))) in your reply.
Outgoing: 48.9

# credit: the array DNA melting data of Ke et al.
